molecular target: Prohibitin-2 (Homo sapiens) (UniProt Q99623); assay: Induction of PHB2-mediated melanogenesis in human HBL cells assessed as pigmentation at 10 uM after 10 days relative to control; format: cell-based
Sequence (Q99623 whole entry): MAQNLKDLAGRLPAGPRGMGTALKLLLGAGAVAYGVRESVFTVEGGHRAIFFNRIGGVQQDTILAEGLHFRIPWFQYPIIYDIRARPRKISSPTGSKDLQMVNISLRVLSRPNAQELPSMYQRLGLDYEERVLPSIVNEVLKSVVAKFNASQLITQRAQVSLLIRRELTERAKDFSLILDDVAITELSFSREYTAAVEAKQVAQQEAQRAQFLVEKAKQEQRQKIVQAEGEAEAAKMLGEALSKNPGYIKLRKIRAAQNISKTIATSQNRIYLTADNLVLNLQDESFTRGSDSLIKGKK
Recorded Endpoint: fold change (FC)

[P] NCCOCCOCCNc1nc(NCc2cccc(F)c2)nc(Oc2c(F)c(F)c(F)c(F)c2F)n1
[Q] CCC(Nc1nc(NCCN(C)C)nc(Oc2c(F)c(F)c(F)c(F)c2F)n1)c1cccc(F)c1 (centres undefined)
(Q) Between P and Q , which one shows the smaller fold change (FC) number? Use the label to indicate which entry you chose.
(A) Q

[I] CN(C)CCNc1nc(Oc2c(F)c(F)c(F)c(F)c2F)nc(N2CCCc3ccccc3C2)n1
[II] CC[C@@H](CO)Nc1nc(NCc2cccc(F)c2)nc(Oc2c(F)c(F)c(F)c(F)c2F)n1
(Q) Select the item whose fold change (FC) value is smaller, choosing between I and II . # answer = label of selected item
(A) II

[1] CN(C)CCNc1nc(Oc2c(F)c(F)c(F)c(F)c2F)nc(N(C)Cc2cccc(F)c2)n1
[2] FC1(F)N=C(c2ccc(Cl)cc2)SC1(F)c1ccc(Cl)cc1 (centres undefined)
[3] Fc1cccc(CNc2nc(NCC3CCCO3)nc(Oc3c(F)c(F)c(F)c(F)c3F)n2)c1 (centres undefined)
(Q) Please list these in order of increasing fold change (FC). Thank you! # output: labels, in the requested order
(A) 3, 2, 1
(3: 0.95, 2: 1.37, 1: 1.97)

[1] CN(C)C1CCN(c2nc(Oc3c(F)c(F)c(F)c(F)c3F)nc(N3CCCc4ccccc4C3)n2)CC1
[2] Fc1cccc(CNc2nc(NCCCCc3ccccc3)nc(Oc3c(F)c(F)c(F)c(F)c3F)n2)c1
(Q) Recorded fold change (FC) values differ for 1 and 2 ; which one is higher? Mark your selection by writing its label.
(A) 1
(1: 1.51, 2: 1)

###

molecular target: Prohibitin-2 (Homo sapiens) (UniProt Q99623); assay: Induction of PHB2-mediated melanogenesis in human HBL cells assessed as pigmentation at 1 uM after 10 days relative to control; assay type: cell-based
Recorded Endpoint: fold change (FC)

{"columns": ["Compound", "Numeric Result"],
 "data": [
  ["CN(C)C1CCN(c2nc(Oc3c(F)c(F)c(F)c(F)c3F)nc(N3CCCc4ccccc4C3)n2)CC1", 0.83],
  ["C[C@H](c1ccccc1)N(C)c1nc(NCCN(C)C)nc(Oc2c(F)c(F)c(F)c(F)c2F)n1", 1.25]
]}

[I] C[C@@H](Nc1nc(NCCN(C)C)nc(Oc2c(F)c(F)c(F)c(F)c2F)n1)c1ccccc1
[II] CN(C)CCNc1nc(Oc2c(F)c(F)c(F)c(F)c2F)nc(N(C)Cc2cccc(F)c2)n1
(Q) Determine, for I and II , which has the greater value of fold change (FC). In your reply, give the label of the chosen option.
(A) II

###

biological target: UniProt:Q99623; assay: Induction of PHB2-mediated melanogenesis in human HBL cells assessed as pigmentation at 1 uM after 10 days relative to control; type: cell-based
Recorded Endpoint: fold change (FC)

{"columns": ["Compound", "Target Of Assay", "Numeric Result"],
 "data": [
  ["Fc1cccc(CNc2nc(Oc3c(F)c(F)c(F)c(F)c3F)nc(N3CCCC3)n2)c1", "UniProt:Q99623", 0.99],
  ["Fc1cccc(CNc2nc(NCCCc3ccccc3)nc(Oc3c(F)c(F)c(F)c(F)c3F)n2)c1", "UniProt:Q99623", 1.07],
  ["Fc1cccc(CNc2nc(Oc3c(F)c(F)c(F)c(F)c3F)nc(N3CCOCC3)n2)c1", "UniProt:Q99623", 0.85],
  ["CC[C@H](CO)Nc1nc(N[C@H](C)c2ccccc2)nc(Oc2c(F)c(F)c(F)c(F)c2F)n1", "UniProt:Q99623", 0.94],
  ["CCC(CO)Nc1nc(NCc2cccc(F)c2)nc(Oc2c(F)c(F)c(F)c(F)c2F)n1 (stereo not given)", "UniProt:Q99623", 1.06]
]}
